- Target Of Assay: Glycogen synthase kinase-3 alpha (Homo sapiens) (UniProt P49840)
- Sequence (P49840 whole entry, looked up): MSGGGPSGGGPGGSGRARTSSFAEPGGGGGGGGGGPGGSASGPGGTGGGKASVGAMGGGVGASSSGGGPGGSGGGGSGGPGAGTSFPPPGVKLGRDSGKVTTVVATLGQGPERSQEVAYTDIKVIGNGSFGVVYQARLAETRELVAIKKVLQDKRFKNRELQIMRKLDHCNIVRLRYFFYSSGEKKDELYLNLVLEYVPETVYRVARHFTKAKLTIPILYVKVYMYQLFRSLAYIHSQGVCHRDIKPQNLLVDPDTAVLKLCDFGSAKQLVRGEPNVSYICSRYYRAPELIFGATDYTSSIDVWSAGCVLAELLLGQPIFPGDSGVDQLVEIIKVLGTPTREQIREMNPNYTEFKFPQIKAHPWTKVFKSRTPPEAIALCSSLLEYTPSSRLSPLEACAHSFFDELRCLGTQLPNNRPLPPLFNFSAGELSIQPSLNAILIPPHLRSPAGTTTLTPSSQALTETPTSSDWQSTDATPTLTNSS
- Test: concentration-response blocking of human GSK3A – biochemical, luminescence, cell-free homogeneous, retest, dose response (AID 463203)
- Conditions Used: GSK-3 alpha enzyme, ADP-Glo luminescence, 60 min
Active and inactive are the calls of the source.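 Rule for the calls: active = more than half of replicate measurements showing over 20% loss of kinase signal relative to plate controls; inconclusive = some but at most half of replicates over 20% loss; inactive = no replicate over 20% signal loss.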
I would appreciate it if you answered using one of these outcomes: active, inactive

Oc1ccc(-c2nc3ncccn3c2Nc2ccc3c(c2)OCO3)cc1 ... active
CC1(C)CC(=O)C(C(c2ccncc2)C2C(=O)CC(C)(C)CC2=O)C(=O)C1 ... inactive
CCC(C)Sc1nc2c(c(=O)[nH]1)C(c1cccs1)C1=C(CCCC1=O)N2 (stereo unspecified) ... inactive
Cc1c(CN(C)C)c2c(n1Cc1ccccc1)C(=O)c1ccccc1-2 ... inactive
CC(=NCCCn1ccnc1)c1c(O)n(C)c(=O)n(C)c1=O ... inactive

Next item in the queue.
*Q* Outcome logged for O=C(c1ccc(Cn2cnnn2)cc1)N1CCCC(Nc2ccc(F)c(F)c2)C1 (stereo unspecified) in this assay:
*A* active
